Cited source: PubChem BioAssay (NCI)

Test: NCI Yeast Anticancer Drug Screen. Data for the rad50 strain (AID 155);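 also: 0% = growth of vehicle-only cultures of the same strain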
Conditions: S. cerevisiae rad50 strain growth inhibition; at 50.0 µM
Compounds without any hit were thinned out: in the full panel of roughly 79,000, 15% have a hit. Calls of active or inactive are those of the source. Rule as the data show it: active = growth inhibition above about 70%; inactive = the rest.
Respond using exactly one of the listed classes: t (active), f (inactive)

Assay result, entry `CN1C(=O)C(=C2CCCCC2)SC1=S` — outcome?
f

Likewise for COc1cc(C2=C3C(=O)OCC3Cc3ccccc32)ccc1OCc1ccccc1 (stereo not given) ?
f

Likewise for `CCOC(=O)Nc1cc(Cl)c2nnn(C(=O)OCC)c2n1` ?
t

Likewise for `Cn1ncc2[nH]c(=O)n(OS(=O)(=O)c3ccccc3)c(=O)c21` ?
f

Likewise for COC1CC(C)(NC(=O)C(F)(F)F)C2OC(c3ccccc3)OCC2O1 (stereo not given) ?
f

Likewise for O/N=C1/C(=C/c2ccc(F)cc2)CCCC1C(NO)c1ccc(F)cc1 (stereo not given) ?
f

Likewise for Cc1ccc(S(=O)c2ccccc2[N+](=O)[O-])cc1 (stereo not given) ?
f

Likewise for `COC1=CC(=O)C(C(C)=O)=C(O)C1=O` ?
f

Likewise for `O=c1[nH]c2ccccc2c(O)c1/C=N/C(=S)NCc1ccccc1` ?
f

Likewise for NC(CSSCC(NC(=O)CNC(=O)OCc1ccccc1)C(=O)O)C(=O)O (stereo not given) ?
f

Likewise for `COc1ccc2c(c1OC)C(=O)O[C@@H]2[C@H]1c2c(cc3c(c2OC)OCO3)CCN1C` ?
f

Likewise for `N#Cc1cc(C#N)c(N)nc1N` ?
f

Likewise for COc1ccc(C(O)c2ccccn2)cc1 (stereo not given) ?
f

Likewise for CCCC1CCCC12CCc1ccccc1C2=O (stereo not given) ?
f

Likewise for COC1(CCO)CC=CCC1(CCO)OC (stereo not given) ?
f

====

Task for the reader: assign each of the following molecules its reported growth inhibition.
Experiment: NCI Yeast Anticancer Drug Screen. Data for the sgs1 mgt1 strain (AID 161);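 also: 0% = growth of cultures given vehicle only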
Conditions: S. cerevisiae sgs1 mgt1 strain, at 50.0 µM, hits give high values
Compounds without any hit were thinned out: in the full panel of roughly 79,000, 15% have a hit.
Hi! Could you send only the number? It should be in %, unit omitted.

Quick check: growth inhibition of `Nc1nnc(CCCCCCCc2nnc(N)o2)o1` ?
3.45

Likewise for CC(C)NCC1CCCO1 (configuration not stated) ?
-16.4

Likewise for `NCC(=O)c1c[nH]c(=O)[nH]c1=O` ?
-12.2

Likewise for CC(=O)OCC(OC(C)=O)C(OC(C)=O)C(OC(C)=O)C(O)CO (configuration not stated) ?
15.4

Likewise for `O=C(NC(=O)c1ccc(Cl)c(Cl)c1)Nc1ccc(Cl)cc1` ?
-6.35

Likewise for `CCCCCCn1c(=O)cc2n(c1=O)CCC2` ?
22.1

Likewise for `NC(=O)c1cc([N+](=O)[O-])cnc1Sc1ncccn1` ?
21.7

====

Task for the reader: assign each of the following compounds its reported growth inhibition.
Assay: NCI Yeast Anticancer Drug Screen. Data for the rad50 strain (AID 155);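 also: 0% = growth of vehicle-only cultures of the same strain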
Conditions: S. cerevisiae rad50 strain growth inhibition; at 50.0 µM; hits give high values
About 79,000 compounds went through this panel and 15% of them were active in at least one assay; those are over-represented in the sample as a whole.
Hi! Could you send only the number? It should be in %, unit omitted.

Quick check: growth inhibition of `CN(C)c1ccccc1CN1CCCN(Cc2ccccc2N(C)C)C1c1ccncc1` ?
-16.3

Likewise for `CC(C)(C)NC(=O)Oc1ccc2ccccc2c1` ?
1.75

Likewise for `Cc1c(N)cc2c(c1[N+](=O)[O-])C(C)(C)CC2(C)C` ?
3.15

Likewise for `COc1ccc(N=N/C(=N/NC(=O)c2ccccc2)c2ccc(N(CCC#N)CCC#N)cc2C)cc1` ?
-4.35
